# Organism: Mus musculus
# assay_protocol: Selectivity ratio of Ki for mu opioid receptor in mouse whole brain without cerebellum to Ki for delta opioid receptor in mouse whole brain without cerebellum
reported_metric: Ratio Ki
Give bare numbers.

// solved cases for Ratio Ki follow
compound: CN(C)c1ccc2cc3c(nc2c1)C[C@]12CCN(C)[C@H](Cc4ccc(O)cc41)[C@]2(O)C3
Ratio Ki: 40.9
--
compound: CN1CC[C@]23Cc4nc5c(Cl)cccc5cc4C[C@@]2(O)[C@H]1Cc1ccc(O)cc13
Ratio Ki: 147
--
compound: CN1CC[C@]23Cc4nc5cccc(Cl)c5cc4C[C@@]2(O)[C@H]1Cc1ccc(O)cc13
Ratio Ki: 166

Fill in Ratio Ki for each of the 5 compounds listed.
1. CN1CC[C@]23Cc4nc5c(C(F)(F)F)cccc5cc4C[C@@]2(O)[C@H]1Cc1ccc(O)cc13
2. CN(C)c1ccc2nc3c(cc2c1)C[C@@]1(O)[C@H]2Cc4ccc(O)cc4[C@@]1(CCN2C)C3
3. CN1CC[C@]23Cc4nc5ccc(F)cc5cc4C[C@@]2(O)[C@H]1Cc1ccc(O)cc13
4. CN1CC[C@]23Cc4nc5cc(O)ccc5cc4C[C@@]2(O)[C@H]1Cc1ccc(O)cc13
5. Cc1cccc2nc3c(cc12)C[C@@]1(O)[C@H]2Cc4ccc(O)cc4[C@@]1(CCN2C)C3

# output
1. 265
2. 34.7
3. 11.3
4. 72.6
5. 211

For each of the compounds below, note its Ratio Ki.
1. CN1CC[C@]23Cc4nc5cc(Cl)ccc5cc4C[C@@]2(O)[C@H]1Cc1ccc(O)cc13
2. CN1CC[C@]23Cc4nc5ccc(Cl)cc5cc4C[C@@]2(O)[C@H]1Cc1ccc(O)cc13
3. COc1ccc2nc3c(cc2c1)C[C@@]1(O)[C@H]2Cc4ccc(O)cc4[C@@]1(CCN2C)C3
4. CN1CC[C@]23Cc4nc5cc([N+](=O)[O-])ccc5cc4C[C@@]2(O)[C@H]1Cc1ccc(O)cc13
5. CN1CC[C@]23Cc4nc5cccc(F)c5cc4C[C@@]2(O)[C@H]1Cc1ccc(O)cc13
6. COc1cccc2nc3c(cc12)C[C@@]1(O)[C@H]2Cc4ccc(O)cc4[C@@]1(CCN2C)C3
7. CN1CC[C@]23Cc4nc5ccc(C(F)(F)F)cc5cc4C[C@@]2(O)[C@H]1Cc1ccc(O)cc13

# output
1: 72.8; 2: 42.7; 3: 33.6; 4: 20.3; 5: 47.2; 6: 134; 7: 56.6

// each compound listed below needs its Ratio Ki
1. CN1CC[C@]23Cc4nc5cccc([N+](=O)[O-])c5cc4C[C@@]2(O)[C@H]1Cc1ccc(O)cc13
2. Oc1ccc2c3c1O[C@H]1c4[nH]c5ccccc5c4C[C@@]4(O)[C@@H](C2)N(CC2CC2)CC[C@]314 [NALTRINDOLE]

# output
1. 35.4
2. 88.2

Recorded values, source ChEMBL document CHEMBL2146448.
